The measured values listed here are drawn from patent US20160271162A1.

EXPERIMENT: Cytotoxicity evaluation, CellTiter-Blue cell viability
Type: cell-based
CONDITION DETAILS: human, Zluc cells (HCV replicon), CellTiter-Blue Cell Viability Assay

COMPOUND	CC50 at 72 h
CCOc1nc(N)nc2c1ncn2C1O[C@H](CO[P@@](=O)(N[C@H](C)C(=O)OC(C)C)Oc2ccccc2)[C@@H](O)[C@@]1(C)F (some centres unmarked) [Compound 104b]	> 50 µM
CCOc1nc(N)nc2c1ncn2C1O[C@H](COP(=O)(N[C@H](C)C(=O)OC(C)C)Oc2ccccc2)[C@@H](O)[C@@]1(C)F (some centres unmarked) [Compound 104a]	> 50 µM

---

The entries below come with measured pEC50 values attached.
Tested on: HCV genotype 1b replicon
EXPERIMENT: HCV replicon assay (luciferase reporter)
Type: cell-based
CONDITION DETAILS: Hepatitis C virus, Huh-7-derived Zluc cells, 72 hours incubation
pEC50: −log10 of the molar value.

COMPOUND	pEC50
CCOc1nc(N)nc2c1ncn2C1O[C@H](CO[P@@](=O)(N[C@H](C)C(=O)OC(C)C)Oc2ccccc2)[C@@H](O)[C@@]1(C)F (some centres unmarked) [Compound 104b]	6.00 to 6.60
CCOc1nc(N)nc2c1ncn2C1O[C@H](COP(=O)(N[C@H](C)C(=O)OC(C)C)Oc2ccccc2)[C@@H](O)[C@@]1(C)F (some centres unmarked) [Compound 104a]	6.00 to 6.60
